- assay-text: in vivo
- run-parameters: C57BL/6, mouse, ip
Where no end group is shown, it is not given here.
level at 1 h reference
observation-type: level at 1 h (ng/mL)

| substance | observation-type | unit-name | numeric-result |
| --- | --- | --- | --- |
| Ac-WDLYFEIVWE [Peptide A06] | level at 1 h | ng/mL | 5800 |
| Ac-WDLYFEIVW-NH2 [Peptide A05] | level at 1 h | ng/mL | 130 |
| Ac-PMKFDVWDLYFEIVW-NH2 [Peptide A02] | level at 1 h | ng/mL | 612 |
| H-ERMEFDVWDLYFEIVW-NH2 [Peptide A09] | level at 1 h | ng/mL | 129 |

* * *

- assay-text: Plasma stability
- run-parameters: human

| substance | remaining at 0.5 h, 5 μM (%) |
| --- | --- |
| Ac-RMDFDVWDLYFEIVW-NH2 [Peptide A03] | 92 |
| Ac-VWDLYFEIVW-NH2 [Peptide A19] | 99 |

* * *

- assay-text: Acute toxicology in mice
- Type: in vivo, mouse
- run-parameters: C57BL/6, mouse, in vivo, iv; 60 minutes following administration; read-out: Max dose within toxicity category: No detected toxicity
Where no end group is shown, it is not given here.

| substance | NOAEL at 1 h, mg/kg |
| --- | --- |
| Ac-PMKFDVWDLYFEIVW-NH2 [Peptide A02] | 25 |
| Ac-WDLYFEIVWE [Peptide A06] | 1 |
| Ac-RMKFDVWDLYFEIVW-NH2 [Peptide A01] | 20 |
| H-ERMEFDVWDLYFEIVW-NH2 [Peptide A09] | 15 |

* * *

- assay-text: in vivo
- run-parameters: C57BL/6, mouse, ip
Where no end group is shown, it is not given here.

| substance | unit-name | level at 100 min |
| --- | --- | --- |
| Ac-WDLYFEIVW-NH2 [Peptide A05] | ng/mL | 50 |
| Ac-WDLYFEIVWE [Peptide A06] | ng/mL | 3020 |
| H-ERMEFDVWDLYFEIVW-NH2 [Peptide A09] | ng/mL | 68 |
| Ac-PMKFDVWDLYFEIVW-NH2 [Peptide A02] | ng/mL | 176 |

* * *

- assay-text: in vitro
- run-parameters: mouse, pH 7.4
observation-type: recovery at 6 h, 5 μM

| substance | observation-type | result |
| --- | --- | --- |
| Ac-RMKFDVWDLYFEIVW-NH2 [Peptide A01] | recovery at 6 h, 5 μM | > 73.3% |
